Ref: patent US7071219B2

# System: histone deacetylase (HDAC)
# Test Name: cellular acetylation assay (histone acetylation ELISA in PC3 cells)
# Format: cell-based, human
# Settings: compound 1 μM, 24 h incubation, ELISA with antibodies against acetylated histone H3 or H4
Result Type: cell acetylation (PC3, 1 μM) [% of control]

{"Molecule": "CCC(C)CNC(=O)c1ccc(C(=O)Nc2ccccc2N)s1 (stereo not drawn)", "Result": "135.4 % of control"}
{"Molecule": "CCCC(C)NC(=O)c1ccc(C(=O)Nc2ccccc2N)s1 (stereo not drawn)", "Result": "137.2 % of control"}
{"Molecule": "CCC(C)NC(=O)c1ccc(C(=O)Nc2ccccc2N)s1 (stereo not drawn)", "Result": "211.2 % of control"}
{"Molecule": "NC(=O)c1ccc(C(=O)Nc2ccccc2N)s1", "Result": "185.6 % of control"}
{"Molecule": "CN(C)CCNC(=O)c1ccc(C(=O)Nc2ccccc2N)nc1", "Result": "154.6 % of control"}
{"Molecule": "CC(C)N(CCNC(=O)c1ccc(C(=O)Nc2ccccc2N)cc1)C(C)C", "Result": "399.3 % of control"}
{"Molecule": "CN(C)CCNC(=O)c1ccc(C(=O)Nc2ccccc2N)s1", "Result": "233.9 % of control"}
{"Molecule": "CCCCN(CCCC)CCCNC(=O)c1ccc(C(=O)Nc2ccccc2N)nc1", "Result": "223.8 % of control"}
{"Molecule": "CC(=O)Nc1ccc(C(=O)Nc2ccccc2N)cc1 [Reference Compound, reference compound]", "Result": "152 % of control"}
